Cited source for all entries: patent US5137892A

- Test system: Escherichia coli JUHL
- ASSAY NAME: In Vitro Antibacterial Activity, agar dilution MIC
- Assay type: cell-based
- EXPERIMENTAL PARAMETERS: E. coli JUHL; BHI agar dilution, 20-24 hours; unit assumed
What MIC values was measured for each of the following?

For every record below, what is its MIC values?
1. NC1CN(c2c(F)cc3c(=O)c(C(=O)O)cn(C4CC4)c3c2F)CC12OCCO2 (centres unmarked) [Example 274]
2. Cl.Cl.NCC1COC2(CCN(c3cc4c(cc3F)c(=O)c(C(=O)O)cn4-c3ccc(F)cc3F)C2)O1 (centres unmarked) [Example 159]
3. C[C@@H]1COc2c(N3CCC4(CC3)OCCCO4)c(F)cc3c(=O)c(C(=O)O)cn1c23 [Example 330]
4. O=C(O)c1cn(C2CC2)c2cc(N3CCNCC3)c(F)cc2c1=O [Cipro, Ciprofloxacin, reference compound]

0.05 µg/mL
0.39 µg/mL
1.56 µg/mL
0.02 µg/mL

Supply recorded MIC values for CN(C)CC1COC2(CCN(c3nc4c(cc3F)c(=O)c(C(=O)O)cn4-c3ccc(F)cc3F)C2)O1 (centres unmarked) [Example 445] here.
1.56 µg/mL
